- Assay: Human HepG2 cell viability assay in 384 well format
- Assay type: toxicity, cell-based
- Parameters: dose 125 nL, time 70.5 hour; concentration not given beside the values
- Recorded Conditions: HepG2 cells, read-out: Inhibition
Property: cytotoxicity at 70.5 h (%)
Write the number in % without appending the unit.

CCNS(=O)(=O)C1CCN(C(=O)c2ccc(F)cc2)C1 (stereo not drawn) ... 1.22
O=C(NCC1CC1)C1CN(C(=O)c2cccs2)CC12CCOCC2 (stereo not drawn) ... -13.2
Cc1csc(CNC(=O)NCC(O)c2ccccc2)n1 (stereo not drawn) ... -4.81
Cc1ccc(C(=O)N2CCCC(n3cccn3)C2)cc1S(C)(=O)=O (stereo not drawn) ... 0.0611
CCC1CCCCN1C(=O)c1ccc2[nH]nnc2c1 (stereo not drawn) ... -2.33
Cc1cccc(-c2ccc(C(=O)NCCN3CCOCC3)c(=O)[nH]2)c1 ... -6.01
CC(C)NC(=O)[C@@H]1CN(Cc2nccs2)C[C@H]2OCC[C@H]21 ... 36
CC(=O)Nc1ccc(SCC(O)COCc2ccco2)cc1 (stereo not drawn) ... -12

// recorded cytotoxicity at 70.5 h for Cn1cccc1C(=O)NCc1cnc2n1CCN(CC1CCOCC1)C2 : -3.17

// recorded cytotoxicity at 70.5 h for c1nc(CN2CCCC(Cc3ccc(NC4CCCC4)nn3)C2)c[nH]1 (stereo not drawn) : 0.181

// recorded cytotoxicity at 70.5 h for Cc1cc(CSc2nc(=O)ccn2C(C)C)no1 : -3.31
